Molecular target: human adenosine A1 receptor (Homo sapiens, UniProt P30542)
Sequence (P30542 1-326): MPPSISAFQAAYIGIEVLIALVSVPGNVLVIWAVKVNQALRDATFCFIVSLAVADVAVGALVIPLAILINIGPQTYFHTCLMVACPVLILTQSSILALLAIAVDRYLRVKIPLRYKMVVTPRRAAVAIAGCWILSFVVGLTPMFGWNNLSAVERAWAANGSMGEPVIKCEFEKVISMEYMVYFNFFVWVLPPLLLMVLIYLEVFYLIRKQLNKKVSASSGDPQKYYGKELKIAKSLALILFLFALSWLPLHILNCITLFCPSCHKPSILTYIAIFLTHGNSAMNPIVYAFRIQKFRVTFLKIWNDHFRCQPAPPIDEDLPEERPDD
Assay: Yeast β-Galactosidase reporter gene assay, inhibition of NECA-induced activity, strain CY12660
Conditions: A1 Yeast IC50 (nM), Table 7, Effect of C2-Substituent
experimental_endpoint: IC50

(Q) Respond only with IC50 recorded for Cc1[nH]c2nc(C3CCCC3)nc(N[C@H]3CC[C@H](O)CC3)c2c1C [Compound 703]
(A) > 10000 nM

====

Molecular target: human A1 receptor subtype (Homo sapiens, UniProt P30542)
Sequence (P30542 1-326): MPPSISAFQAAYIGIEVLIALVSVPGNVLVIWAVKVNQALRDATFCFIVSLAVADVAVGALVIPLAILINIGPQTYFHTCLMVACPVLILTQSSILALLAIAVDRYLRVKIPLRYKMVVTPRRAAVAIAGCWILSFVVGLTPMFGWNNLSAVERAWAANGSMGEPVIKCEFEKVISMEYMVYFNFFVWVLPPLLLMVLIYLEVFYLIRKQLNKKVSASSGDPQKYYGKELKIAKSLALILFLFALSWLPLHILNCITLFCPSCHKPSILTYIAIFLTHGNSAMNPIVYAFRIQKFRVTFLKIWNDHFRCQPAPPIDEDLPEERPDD
Experiment: biochemical
Conditions: A1 Binding Bi (nM), Table 9
experimental_endpoint: Ki

(Q) GET Ki where system = human A1 receptor subtype (Homo sapiens, UniProt P30542) and item = Cc1c(C)n(C(C)c2ccccc2)c2nc(-c3ccccc3)nc(NCC(C)C)c12 (stereo not shown)
(A) 35.3 nM

====

Target: human adenosine A1 receptor (Homo sapiens, UniProt P30542)
Sequence (P30542 1-326): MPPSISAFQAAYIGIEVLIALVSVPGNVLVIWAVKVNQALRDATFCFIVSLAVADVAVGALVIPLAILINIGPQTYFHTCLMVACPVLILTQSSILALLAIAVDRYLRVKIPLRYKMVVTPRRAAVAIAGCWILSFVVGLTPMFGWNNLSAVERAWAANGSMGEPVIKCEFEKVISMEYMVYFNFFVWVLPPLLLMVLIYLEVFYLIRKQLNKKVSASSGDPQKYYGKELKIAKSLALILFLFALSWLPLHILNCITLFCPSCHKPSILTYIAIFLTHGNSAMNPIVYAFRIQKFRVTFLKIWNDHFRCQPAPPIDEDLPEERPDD
Assay: Yeast β-Galactosidase reporter gene assay, inhibition of NECA-induced activity, strain CY12660
pIC50: −log10 of the molar value.
experimental_endpoint: pIC50

(Q) Respond only with pIC50 recorded for Cc1[nH]c2nc(-c3ccccc3)nc(NC3CCC(OC(=O)c4ccccc4)CC3)c2c1C (centres unmarked)
(A) < 5.00

(Q) Respond only with pIC50 recorded for Cc1c(C)n(C)c2nc(-c3ccccc3)nc(N[C@H]3CC[C@H](O)CC3)c12
(A) < 5.00

Sourced from patent US6686366B1
